Please provide measured koff for the entries that follow.
- tgt: T1, full-length human Tau (Tau441; 2N4R), recombinant (human, UniProt P10636 1-758)
- T1 construct: made in E. coli, His6-Smt3 tag removed; biotinylated through amines for Octet and phage work; also called r-Tau; recombinant Tau
- assay_method_text: SPR Biacore
Please provide the amount together with its unit, number first.

binder | measurement
Clone with H1_4-4 (antibody, V domains shown, based on hu1C7.v2) VH: EVQLLESGGGLVQPGGSLRLSCAASGFRFSSPGMSWVRQAPGKGLEWVASISGDGGSYIHYADSVKGRFTISRDNSKNTLYLQMNSLRAEDTAVYYCARLPYWGQGTLVTVSS VL: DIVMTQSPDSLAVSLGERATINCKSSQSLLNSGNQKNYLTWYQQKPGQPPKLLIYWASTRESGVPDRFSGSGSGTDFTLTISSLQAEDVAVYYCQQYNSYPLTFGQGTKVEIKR | 0.00126 s⁻¹
Clone with L3_6 (antibody, V domains shown, based on hu1C7.v2) VH: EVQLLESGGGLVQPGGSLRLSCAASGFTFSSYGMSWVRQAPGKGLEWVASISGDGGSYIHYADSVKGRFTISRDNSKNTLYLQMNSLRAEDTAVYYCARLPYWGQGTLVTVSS VL: DIVMTQSPDSLAVSLGERATINCKSSQSLLNSGNQKNYLTWYQQKPGQPPKLLIYWASTRESGVPDRFSGSGSGTDFTLTISSLQAEDVAVYYCQQYSSYPLTFGQGTKVEIKR | 0.00057 s⁻¹

Tell me the measured koff of Clone with H2_1 (antibody, V domains shown, based on hu1C7.v2) VH: EVQLLESGGGLVQPGGSLRLSCAASGFTFSSYGMSWVRQAPGKGLEWVASISGEGGSYIHYADSVKGRFTISRDNSKNTLYLQMNSLRAEDTAVYYCARLPYWGQGTLVTVSS VL: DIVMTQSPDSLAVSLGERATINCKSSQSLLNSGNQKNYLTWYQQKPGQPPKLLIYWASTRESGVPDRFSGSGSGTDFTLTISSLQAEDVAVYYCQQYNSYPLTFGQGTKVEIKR , please. 0.00369 s⁻¹
